FYI, the data here is from PubChem BioAssay AID248.

Test system: L1210 leukemia ip in BDF1 mice, survival T/C
Test: NCI In Vivo Anticancer Drug Screen. Data for tumor model L1210 Leukemia (intraperitoneal) in B6D2F1 (BDF1) mice
Conditions: endpoint: mean survival time; dose: 200.0 mg/kg/injection; schedule: Q01DX009 (ip); vehicle: saline; higher = longer survival
Toxic doses and inconclusive results are not listed.
quantity-name: T/C

{"molecule": "CC(C)(CO)NC=O (tested in a mixture with another compound)", "reported-value": "113 % of control"}
{"molecule": "CNCCN1CCC(Cc2ccccc2)CC1", "reported-value": "121 % of control"}
{"molecule": "COC(=O)C1(Br)CCC1(Br)C(=O)OC (centres undefined)", "reported-value": "100 % of control"}
{"molecule": "COCC(N)=O", "reported-value": "97 % of control"}
{"molecule": "CC(=O)Nc1cccnc1", "reported-value": "98 % of control"}
{"molecule": "CC(C)(Oc1ccc(Cl)cc1)C(=O)NC(N)=O", "reported-value": "103 % of control"}
{"molecule": "CC(=O)CCC(=O)OCCCl", "reported-value": "101 % of control"}
{"molecule": "O=C1Nc2ccccc2C1=O", "reported-value": "103 % of control"}
{"molecule": "N=C(N)SCCC(=O)O", "reported-value": "110 % of control"}
{"molecule": "CC12C3CCC(C3)C1(O)C2S(=O)(=O)N1CCCCC1 (centres undefined)", "reported-value": "104 % of control"}
{"molecule": "CN(C)CCCNC(CC#N)CCC#N (centres undefined)", "reported-value": "92 % of control"}
{"molecule": "CC(=O)Nc1ccc(S(=O)(=O)NO)cc1", "reported-value": "94 % of control"}
{"molecule": "C=C(CC(N)=O)C(=O)O (tested in a mixture with another compound)", "reported-value": "111 % of control"}
{"molecule": "COc1cc(CC(C)N)cc(OC)c1OC (centres undefined)", "reported-value": "103 % of control"}
